These measurements were taken from ChEMBL document CHEMBL4689842.

system: Fibroblast; experiment: Multiplex assay against human fibroblast; assay type: toxicity, cell-based; settings: 48 h, 1 µM, compound concentration 1 uM, replicate 1
Param label: returns condition met when Population Normal (%) < 80%, returns condition not met otherwise, including exact equality.

{"COMPOUND": "CC(C)(C)NC[C@H](O)COc1nsnc1N1CCOCC1 [TIMOLOL]", "ASSIGNED CLASS": "condition not met"}
{"COMPOUND": "Cc1ccc(C)c(Oc2ccncc2C(=O)N2CCN(C3CC3)c3ccccc32)c1", "ASSIGNED CLASS": "condition not met"}
{"COMPOUND": "CCCSc1nc(N[C@@H]2C[C@H]2c2ccc(F)c(F)c2)c2nnn([C@@H]3C[C@H](OCCO)[C@@H](O)[C@H]3O)c2n1 [TICAGRELOR]", "ASSIGNED CLASS": "condition not met"}

Attention now shifts to the item below.
Problem: For the compound `CC(C)NC(=O)N1CC[C@H](NC2=Nc3cc(F)ccc3N(CC(F)F)c3ccc(Cl)cc32)C1` , is Population Normal (%) under 80%?
condition not met

====

test system: U2OS; assay: Multiplex assay against U2OS; format: toxicity, cell-based; conditions: human, 12 h, 1 µM, compound concentration 1 uM, replicate 1
Assignment: determine reported Population Tubulin-Different-Phenotype (%) for the given molecules.
One number for each entry, in %.

Use these answered entries as a reference point.
{"MOLECULE": "CCC1=C[C@@H]2C[N@](C1)Cc1c([nH]c3ccccc13)[C@@](C(=O)OC)(c1cc3c(cc1OC)N(C)[C@H]1[C@@](O)(C(=O)OC)[C@H](OC(C)=O)[C@]4(CC)C=CCN5CC[C@]31[C@@H]54)C2.O=C(O)C(O)C(O)C(=O)O.O=C(O)C(O)C(O)C(=O)O [VINORELBINE TARTRATE]", "RECORDED VALUE": 26}
{"MOLECULE": "CCc1nn(CCCN2CCN(c3cccc(Cl)c3)CC2)c(=O)n1CCOc1ccccc1.Cl [NEFAZODONE HYDROCHLORIDE]", "RECORDED VALUE": 28}
{"MOLECULE": "O=c1[nH]c2ccccc2n1C1CCN(Cc2ccc(-c3[nH]c4cc5ncnc5cc4nc3-c3ccccc3)cc2)CC1", "RECORDED VALUE": 24}
{"MOLECULE": "COc1cc2ncn(-c3cc(OCc4ccccc4C(F)(F)F)c(C(N)=O)s3)c2cc1OC [GW843682X]", "RECORDED VALUE": 28}
{"MOLECULE": "CCCSc1nc(N[C@@H]2C[C@H]2c2ccc(F)c(F)c2)c2nnn([C@@H]3C[C@H](OCCO)[C@@H](O)[C@H]3O)c2n1 [TICAGRELOR]", "RECORDED VALUE": 10}
{"MOLECULE": "CC(C)OC(=O)N1CCC(Oc2ncnc3c2cnn3-c2ccc(S(C)(=O)=O)cc2F)CC1", "RECORDED VALUE": 12}
{"MOLECULE": "COc1ccccc1CN[C@H]1C2CCN(CC2)[C@H]1C(c1ccccc1)c1ccccc1 [CP-96345]", "RECORDED VALUE": 16}
{"MOLECULE": "CCc1ccc(OCc2ccccc2C(=O)Nc2ccc3nc(C)cc(N)c3c2)cc1.Cl", "RECORDED VALUE": 87}
{"MOLECULE": "O=c1cc(N2CCOCC2)oc2c(-c3cccc4c3sc3ccccc34)cccc12", "RECORDED VALUE": 10}
{"MOLECULE": "CNC(=O)Nc1ccc(-c2nc(N3CC4CCC(C3)O4)c3cnn(C4CCC5(CC4)OCCO5)c3n2)cc1", "RECORDED VALUE": 26}

Count: 3. Required value per item: Population Tubulin-Different-Phenotype (%).
1. C=CC(=O)Nc1ccc2[nH]c(=O)n(C3CCN(Cc4ccc(-c5nc6cc[nH]c(=O)c6cc5-c5ccccc5)cc4)CC3)c2c1 [Borussertib]
2. Cc1ccc2c(c1)c1c(n2CCc2ccc(C)nc2)CCN(C)C1 [LATREPIRDINE]
3. CC1=C(C(=O)Nc2cc3cn[nH]c3cc2F)C(c2ccc(C(F)(F)F)cc2)CC(=O)N1 (centres undefined)

1. 29
2. 42
3. 10

Given the molecule `CC(C)NC(=O)N1CC[C@H](NC2=Nc3cc(F)ccc3N(CC(F)F)c3ccc(Cl)cc32)C1` , what is its reported Population Tubulin-Different-Phenotype (%)?
19
